Quick list: Plant response rating, Ragweed per entry.
# Test system: ragweed (common ragweed, Ambrosia elation)
# experiment_summary: Test C pre-/postemergence: ragweed
# Type: in vivo
# measurement_conditions: Postemergence, 31 g ai/ha; scale 0 to 100 (0 no effect, 100 complete control)

| mol_smiles | Plant response rating, Ragweed |
| --- | --- |
| Cc1nn(-c2ccnc(Cl)c2)nc1Cc1ccnc(C(F)(F)F)c1 | 60 |
| CCCc1nn(-c2ccc(C(F)(F)F)cc2)nc1Oc1ccnc(C(F)(F)F)c1 | 85 |
| CCCc1nn(-c2ccc(F)cc2)nc1Oc1ccnc(C(F)(F)F)c1 | 65 |
| FCc1nn(-c2ccc(F)cc2)nc1Oc1ccnc(C(F)(F)F)c1 | 10 |
| COc1nn(-c2ccc(C(F)(F)F)cc2)nc1Cc1ccnc(C(F)(F)F)c1 | 60 |
| Fc1ccc(-n2nc(Cc3ccnc(C(F)(F)F)c3)c(OC(F)F)n2)cc1 | 50 |
